Kindly supply the reported GI50 values for the records listed here.
Tested on: NCI-H460
Assay: Growth inhibition of human NCI-H460 cells after 48 hrs by sulforhodamine B assay
Assay type: functional
Conditions: NCI-H460, 48 h
A number alone suffices; assume nM.

QUERY: # return recorded GI50 for entry CC(C)=CCC/C(C)=C/CC/C(C)=C/CC[C@]1(C)CCc2c3c(cc(C)c2O1)OCN(CCCCCCCCO)C3
RESULT: 710

QUERY: Fill in reported GI50 for this entry: CC(C)=CCC/C(C)=C/CC/C(C)=C/CC[C@]1(C)CCc2c3c(cc(C)c2O1)OCN(CCCCCO)C3
RESULT: 5180

QUERY: Provide measured GI50 value, entry: CC(C)=CCC/C(C)=C/CC/C(C)=C/CC[C@]1(C)CCc2c3c(c(C)c(C)c2O1)OCN(CCCCCO)C3
RESULT: 5180

QUERY: Note down GI50 recorded for CC(C)=CCC/C(C)=C/CC/C(C)=C/CC[C@]1(C)CCc2c3c(c(C)c(C)c2O1)OCN(CCCCCCCCO)C3
RESULT: 3250

QUERY: Check the records and state GI50 for CC(C)=CCC/C(C)=C/CC/C(C)=C/CC[C@]1(C)CCc2c3c(cc(C)c2O1)OCN(CCCCCCO)C3
RESULT: 692

QUERY: Note GI50 for the molecule shown: CC(C)=CCC/C(C)=C/CC/C(C)=C/CC[C@]1(C)CCc2c3c(cc(C)c2O1)OCN(CCCO)C3
RESULT: 1930

###

Tested on: M14
Test: Growth inhibition of human M14 cells after 48 hrs by sulforhodamine B assay
Type: functional
Conditions: M14, 48 h
MEASURED_ATTRIBUTE: GI50 (µM)
The reply should contain only the number, in µM.

QUERY: Report GI50 for CC(C)=CCC/C(C)=C/CC/C(C)=C/CC[C@]1(C)CCc2c3c(cc(C)c2O1)OCN(CCCCCO)C3
RESULT: 6.63

QUERY: Report measured GI50; entry is CC(C)=CCC/C(C)=C/CC/C(C)=C/CC[C@]1(C)CCc2c3c(cc(C)c2O1)OCN(CCCO)C3
RESULT: 1.92

QUERY: Hello, please tell me recorded GI50 for this one: CC(C)=CCC/C(C)=C/CC/C(C)=C/CC[C@]1(C)CCc2c3c(cc(C)c2O1)OCN(CCCCO)C3
RESULT: 21

QUERY: Entry CC(C)=CCC/C(C)=C/CC/C(C)=C/CC[C@]1(C)CCc2c3c(c(C)c(C)c2O1)OCN(CCCCCO)C3 needs its GI50 filled in; supply it.
RESULT: 6.63

QUERY: Given CC(C)=CCC/C(C)=C/CC/C(C)=C/CC[C@]1(C)CCc2c3c(c(C)c(C)c2O1)OCN(CCCCCCCCO)C3 , respond with its GI50.
RESULT: 3.02

###

Test system: HCT-116
Experiment: Growth inhibition of human HCT116 cells assessed as cell growth at 10 uM after 48 hrs by sulforhodamine B assay
Type: functional
Conditions: HCT-116, 48 h, read-out: Activity
Would you mind telling me the reported growth at 10 µM of each entry?
Numbers only; they are read as %.

QUERY: Fill in: growth at 10 µM on HCT-116, entry CC(C)=CCC/C(C)=C/CC/C(C)=C/CC[C@]1(C)CCc2c3c(cc(C)c2O1)OCN(CCCCCCO)C3
RESULT: -97.3

QUERY: Provide growth at 10 µM, tested on HCT-116, for CC(C)=CCC/C(C)=C/CC/C(C)=C/CC[C@]1(C)CCc2c(CNCCc3ccc(O)cc3)c(O)c(C)c(C)c2O1 .
RESULT: 61.4

QUERY: Please respond with reported growth at 10 µM (system HCT-116) for CC(C)=CCC/C(C)=C/CC/C(C)=C/CC[C@]1(C)CCc2c3c(cc(C)c2O1)OCN(CCCCCCCCCCO)C3 .
RESULT: 65.6

QUERY: Supply growth at 10 µM measured with HCT-116 for CC(C)=CCC/C(C)=C/CC/C(C)=C/CC[C@]1(C)CCc2c3c(cc(C)c2O1)OCN(CCCCCCCCCCCCO)C3 .
RESULT: 51.6

QUERY: Please look at CC(C)=CCC/C(C)=C/CC/C(C)=C/CC[C@]1(C)CCc2c3c(c(C)c(C)c2O1)OCN(CCc1ccc(O)cc1)C3 and tell me its recorded growth at 10 µM on HCT-116.
RESULT: 37.7

QUERY: Look up and report growth at 10 µM, with HCT-116 as system, for CC(C)=CCC/C(C)=C/CC/C(C)=C/CC[C@]1(C)CCc2c3c(cc(C)c2O1)OCN(CCCCCO)C3
RESULT: -89.6

QUERY: # lookup: HCT-116 growth at 10 µM, key = CC(C)=CCC/C(C)=C/CC/C(C)=C/CC[C@]1(C)CCc2c3c(cc(C)c2O1)OCN(CCCO)C3
RESULT: -85.4

QUERY: // fetch growth at 10 µM; item: CC(C)=CCC/C(C)=C/CC/C(C)=C/CC[C@]1(C)CCc2c3c(cc(C)c2O1)OCN(CCCCO)C3 ; system: HCT-116
RESULT: -96.7

QUERY: Determine reported growth at 10 µM for CC(C)=CCC/C(C)=C/CC/C(C)=C/CC[C@]1(C)CCc2c3c(c(C)c(C)c2O1)OCN(CCCCCCCCCCO)C3 ; test system: HCT-116.
RESULT: 78.4

QUERY: Tell me its growth at 10 µM on HCT-116: CC(C)=CCC/C(C)=C/CC/C(C)=C/CC[C@]1(C)CCc2c3c(c(C)c(C)c2O1)OCN(CCCCCO)C3
RESULT: 36.1

QUERY: GET growth at 10 µM where system = HCT-116 and item = COc1ccc(CCNCc2c(O)c(C)c(C)c3c2CC[C@@](C)(CC/C=C(\C)CC/C=C(\C)CCC=C(C)C)O3)cc1OC
RESULT: 47.1

QUERY: Enter measured growth at 10 µM, system HCT-116, for the molecule shown: CC(C)=CCC/C(C)=C/CC/C(C)=C/CC[C@]1(C)CCc2c3c(c(C)c(C)c2O1)OCN(CCCCCCCCO)C3
RESULT: -92.9

QUERY: State measured growth at 10 µM of the molecule CC(C)=CCC/C(C)=C/CC/C(C)=C/CC[C@]1(C)CCc2c3c(cc(C)c2O1)OCN(CCCCCCCCO)C3 with HCT-116.
RESULT: -100

QUERY: State growth at 10 µM (HCT-116) of CC(C)=CCC/C(C)=C/CC/C(C)=C/CC[C@]1(C)CCc2c3c(c(C)c(C)c2O1)OCN(CCCCCCO)C3 .
RESULT: -92.7

QUERY: Please report the measured growth at 10 µM for CC(C)=CCC/C(C)=C/CC/C(C)=C/CC[C@]1(C)CCc2cc(O)c(C)c(C)c2O1 tested on HCT-116.
RESULT: 109

QUERY: System HCT-116. Read-out growth at 10 µM. Item CC(C)=CCC/C(C)=C/CC/C(C)=C/CC[C@]1(C)CCc2c3c(cc(C)c2O1)OCN(CCc1ccc(O)cc1)C3 . Report value.
RESULT: -58.2

QUERY: Report its growth at 10 µM with HCT-116 as the test system: CC(C)=CCC/C(C)=C/CC/C(C)=C/CC[C@]1(C)CCc2c3c(c(C)c(C)c2O1)OCN(CCCCO)C3
RESULT: -72.3

QUERY: Fill in: growth at 10 µM on HCT-116, entry COc1ccc(CCN2COc3c(C)c(C)c4c(c3C2)CC[C@@](C)(CC/C=C(\C)CC/C=C(\C)CCC=C(C)C)O4)cc1OC
RESULT: 91.9

QUERY: Specify the recorded growth at 10 µM for COc1ccc(CCN2COc3cc(C)c4c(c3C2)CC[C@@](C)(CC/C=C(\C)CC/C=C(\C)CCC=C(C)C)O4)cc1OC , system: HCT-116.
RESULT: -84

QUERY: Look up HCT-116 data: growth at 10 µM of CC(C)=CCC/C(C)=C/CC/C(C)=C/CC[C@]1(C)CCc2c3c(c(C)c(C)c2O1)OCN(CCCCCCCCCCCCO)C3 , then report it.
RESULT: 102

###

System: CAKI-1
Test: Growth inhibition of human CAKI-1 cells assessed as cell growth at 10 uM after 48 hrs by sulforhodamine B assay
Assay type: functional
Details: CAKI-1, 48 h, read-out: Activity
MEASURED_ATTRIBUTE: growth at 10 µM (%)
Your answer should be a plain number; it is taken to be in %.

QUERY: Give reported growth at 10 µM for CC(C)=CCC/C(C)=C/CC/C(C)=C/CC[C@]1(C)CCc2c3c(c(C)c(C)c2O1)OCN(CCCCO)C3 (CAKI-1)
RESULT: 70.1

QUERY: Send back CAKI-1 growth at 10 µM of CC(C)=CCC/C(C)=C/CC/C(C)=C/CC[C@]1(C)CCc2c3c(c(C)c(C)c2O1)OCN(CCCCCO)C3 only.
RESULT: 70

QUERY: Report growth at 10 µM on CAKI-1 for this entry: CC(C)=CCC/C(C)=C/CC/C(C)=C/CC[C@]1(C)CCc2c3c(cc(C)c2O1)OCN(CCc1ccc(O)cc1)C3
RESULT: 70.3
